Experiment: Chemical/aqueous solvolysis reactivity followed by UV
Format: physicochemical
Settings: 50% methanol-water, pH 7, pH 7, no added acid catalysis; read-out: solvolysis t1/2, pH 7 (converted)
Procedure: The solvolysis reactivities of N--BOC-CNA (78) and CNA (79) were followed spectrophotometrically by UV at both pH 3 (50% CH3 OH-buffer, buffer=4:1:20 v/v/v 0.1 M citric acid, 0.2 M Na2 HPO4, H2 O) and pH 7 (50% CH3 OH--H2 O). […] Aqueous Solvolysis of N--BOC-CNA (78) and CNA (79). […] The UV spectra of the solutions were measured immediately after mixing with the appropriate aqueous solution. […] The total reaction times reflect those required to observe no further change in absorbance. […]
reported_metric: half-life

Problem: Find the measured half-life of CC(C)(C)OC(=O)N1CCCC2CC23C1=CC(=O)c1ccccc13 (stereo not shown) and report it.
Result: 2.1 h

----------
Experiment: Chemical/aqueous solvolysis reactivity followed by UV
Assay type: physicochemical
Conditions: 50% methanol-water; pH 7, no added acid catalysis; read-out: solvolysis t1/2, pH 7 (converted)
Protocol: The solvolysis reactivities of N--BOC-CNA (78) and CNA (79) were followed spectrophotometrically by UV at both pH 3 (50% CH3 OH-buffer, buffer=4:1:20 v/v/v 0.1 M citric acid, 0.2 M Na2 HPO4, H2 O) and pH 7 (50% CH3 OH--H2 O). […] Aqueous Solvolysis of N--BOC-CNA (78) and CNA (79). […] The UV spectra of the solutions were measured immediately after mixing with the appropriate aqueous solution. […] The total reaction times reflect those required to observe no further change in absorbance. […]
reported_metric: half-life (h)
API: value field is a number in h; no unit string.

Problem: Find the measured half-life of COC(=O)N1CCCC2CC23C1=CC(=O)c1ccccc13 (stereo not shown) [compound 97] and report it.
Result: 2.1

----------
Recorded measurements of half-life, one per entry
Test: Chemical/aqueous solvolysis reactivity followed by UV
Type: physicochemical
Conditions: 50% ch3oh-buffer, pH 3, pH 3, 50% CH3 OH-buffer, 25° C.; read-out: solvolysis t1/2, pH 3 (h) (converted)
API: value field is a number in h; no unit string.

O=C1C=C2NCCCC3CC23c2ccccc21 (centres unmarked) | 0.62

Here is the next item to consider.
Problem: Find the measured half-life of CC(C)(C)OC(=O)N1CCCC2CC23C1=CC(=O)c1ccccc13 (centres unmarked) and report it.
Result: 0.028

----------
Experiment: Chemical/aqueous solvolysis reactivity followed by UV
Format: physicochemical
Conditions: 50% ch3oh-h2o, pH 7, pH 7, 50% CH3 OH--H2 O, 25° C.; read-out: solvolysis t1/2, pH 7 (converted)
reported_metric: half-life (min)
API: value field is a number in min; no unit string.

Problem: Find the measured half-life of CC(C)(C)OC(=O)N1CCCC2CC23C1=CC(=O)c1ccccc13 (stereo not shown) [compound 78] and report it.
Result: 126

----------
Test system: duplex DNA (w794, w836, c988, c820, c1346)
Assay type: biochemical, SV40
Recorded measurements of AT-rich adenine N3 alkylation selectivity (size of site), one per entry
API: value field is a number in base-pair; no unit string.

Problem: Find the measured AT-rich adenine N3 alkylation selectivity (size of site) of COC(=O)c1cc2c([nH]1)C(=O)C=C1N(C(=O)c3cc4c5c(ccc4[nH]3)N(C(=O)c3cc4c6c(ccc4[nH]3)N(C(N)=O)CC6)CC5)CC3CC123 (single isomer, unassigned) [ent-(-)-DSA-CDPI2] and report it.
Result: 5

Problem: Find the measured AT-rich adenine N3 alkylation selectivity (size of site) of COC(=O)c1cc2c([nH]1)C(=O)C=C1N(C(=O)c3cc4cc(OC)c(OC)c(OC)c4[nH]3)C[C@@H]3C[C@@]123 [ent-(-)-duocarmycin SA, reference compound] and report it.
Result: 3.5

Each recorded value in this set is attributed to patent US6281354A.
